Each recorded value in this set is attributed to patent EP1345943B1.

Would you kindly list IC50 for each of these compounds?
target: E1-E2-DNA complex (Human papillomavirus 11, UniProt P04015); test: E2-dependent E1 DNA binding assay (E1-E2 DNA assay); conditions: E1-E2 DNA assay of Example 11, HPV-11
Sequence (P04015 whole entry, one chain of several): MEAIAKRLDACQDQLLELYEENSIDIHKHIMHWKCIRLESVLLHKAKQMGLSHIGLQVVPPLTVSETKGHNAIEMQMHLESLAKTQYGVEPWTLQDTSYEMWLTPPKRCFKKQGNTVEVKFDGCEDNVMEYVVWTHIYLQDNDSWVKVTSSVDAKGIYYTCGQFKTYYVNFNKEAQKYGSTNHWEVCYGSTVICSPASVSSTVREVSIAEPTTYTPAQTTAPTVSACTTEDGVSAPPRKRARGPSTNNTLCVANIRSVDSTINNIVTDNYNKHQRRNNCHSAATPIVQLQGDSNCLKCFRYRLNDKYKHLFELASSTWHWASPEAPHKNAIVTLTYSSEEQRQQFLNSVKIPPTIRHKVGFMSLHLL

Below, 2 compounds whose answers are already recorded.
• O=C(Nc1ccccc1)C1C(c2ccc(Br)c(Br)c2)OC2(C(=O)c3ccccc3C2=O)C1C(=O)O (racemic) = < 0.5 µM
• O=C(Nc1ccc(F)c(F)c1)C1C(c2ccc(Br)c(Br)c2)OC2(C(=O)c3ccccc3C2=O)C1C(=O)O (centres unmarked) = 0.5 to 5 µM

Hi! Can you tell me IC50 for each of these compounds?
1. CC(C)(C)c1ccc(NC(=O)C2C(c3ccc(Cl)c(Cl)c3)OC3(C(=O)c4ccccc4C3=O)C2C(=O)O)cc1 (centres unmarked) [Compound 1025]
2. O=C(Nc1ccccc1Cl)C1C(c2ccc(Cl)cc2)OC23C(=O)c4ccccc4C2(O)OC(=O)C13 (racemic)

0.5 to 5 µM
5 to 50 µM
